molecular target: Muscarinic acetylcholine receptor M1 (Homo sapiens) (UniProt P11229); assay: Cholinergic receptor muscarinic 1 (CHRM1) small molecule antagonists, cell-based qHTS assay (AID 1963588); settings: CHRM1-CHO antagonist mode, calcium flux fluorescence; series mostly up to 61.5 µM; note: nearly all actives have a fitted effect of over 40% in size
Sequence (P11229 whole entry, looked up): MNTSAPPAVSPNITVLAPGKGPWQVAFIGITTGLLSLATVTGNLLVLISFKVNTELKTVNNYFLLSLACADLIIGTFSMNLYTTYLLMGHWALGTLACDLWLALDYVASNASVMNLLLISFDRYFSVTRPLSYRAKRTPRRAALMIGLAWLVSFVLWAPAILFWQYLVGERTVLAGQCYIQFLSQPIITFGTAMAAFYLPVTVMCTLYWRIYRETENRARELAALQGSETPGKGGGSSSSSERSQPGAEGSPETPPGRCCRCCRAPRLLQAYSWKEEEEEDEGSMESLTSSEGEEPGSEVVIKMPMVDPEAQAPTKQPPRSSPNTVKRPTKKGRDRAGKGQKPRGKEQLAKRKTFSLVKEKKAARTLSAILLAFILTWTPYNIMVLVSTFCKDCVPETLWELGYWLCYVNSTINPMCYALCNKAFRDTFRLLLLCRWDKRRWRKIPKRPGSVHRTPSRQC
Results filed as inconclusive are left out. Calls of active or inactive are those of the source. Calls come from the whole dose curve.
Form entry, call: pick from active, inactive

Exercise: State the result this test recorded for NS(=O)(=O)c1ccc(Cl)c(S(N)(=O)=O)c1 .
Solution: inactive

Exercise: State the result this test recorded for Nc1ccc(C(=O)OCC(O)CO)cc1 (stereo not given) .
Solution: inactive

Exercise: State the result this test recorded for Cc1occc(=O)c1OC(=O)C(C)C .
Solution: inactive

Exercise: State the result this test recorded for C=CC(OCC)OCC .
Solution: inactive

Exercise: State the result this test recorded for c1ccc(-c2nn[nH]n2)cc1 .
Solution: inactive

Exercise: State the result this test recorded for O=C(O)c1cc(N=Nc2ccc([N+](=O)[O-])cc2)ccc1O .
Solution: inactive

Exercise: State the result this test recorded for Nc1cccc2c(=O)[nH][nH]c(=O)c12 .
Solution: inactive

Exercise: State the result this test recorded for CC/C=C\CCOC(=O)c1ccccc1 .
Solution: inactive

Exercise: State the result this test recorded for Cc1nnc(C(=O)NC(C)(C)c2nc(C(=O)NCc3ccc(F)cc3)c(O)c(=O)n2C)o1 .
Solution: inactive

Exercise: State the result this test recorded for O=C(O)c1ccc(Cl)cc1Cl .
Solution: inactive

Exercise: State the result this test recorded for CC(=O)OC1CCCCC1C(C)(C)C (stereo not given) .
Solution: inactive

Exercise: State the result this test recorded for O=C1CCCN1CCO .
Solution: inactive

Exercise: State the result this test recorded for CCOc1cccc(N)c1 .
Solution: inactive

Exercise: State the result this test recorded for NC(CS)C(=O)O (stereo not given) .
Solution: inactive

Exercise: State the result this test recorded for O=C(O)C1CCC1 .
Solution: inactive

Exercise: State the result this test recorded for CCc1cc(S(=O)(=O)O)c2cc(C(C)C)cccc1-2 .
Solution: inactive

Exercise: State the result this test recorded for CN1C(=O)c2ccc([N+](=O)[O-])cc2C1=O .
Solution: inactive

Exercise: State the result this test recorded for CCCc1ncc(C(=O)O)s1 .
Solution: inactive

Exercise: State the result this test recorded for C=CC(=O)OCCOCCOCC .
Solution: inactive

Exercise: State the result this test recorded for O=C(O)CCC(=O)C(=O)O .
Solution: inactive

Exercise: State the result this test recorded for CC(=O)c1cnccn1 .
Solution: inactive

Exercise: State the result this test recorded for Cn1c(=O)[nH]c2ncn(C)c2c1=O .
Solution: inactive

Exercise: State the result this test recorded for O=C(O)Cn1c(C(=O)Nc2nc(-c3ccccc3Cl)cs2)cc2ccccc21 .
Solution: inactive

Exercise: State the result this test recorded for NC(=O)c1ncn([C@@H]2O[C@H](CO)[C@@H](O)[C@H]2O)c1N .
Solution: inactive

Exercise: State the result this test recorded for COc1ccccc1Oc1c(NS(=O)(=O)c2ccc(C(C)(C)C)cc2)nc(-c2ncccn2)nc1OCCO .
Solution: inactive

Exercise: State the result this test recorded for CNC(=O)c1c(I)c(NC(=O)CCCCC(=O)Nc2c(I)c(C(=O)O)c(I)c(C(=O)NC)c2I)c(I)c(C(=O)O)c1I .
Solution: inactive

Exercise: State the result this test recorded for CCOC(=O)C(=O)CCc1ccccc1 .
Solution: inactive

Exercise: State the result this test recorded for CO[Si](CCCNc1ccccc1)(OC)OC .
Solution: inactive

Exercise: State the result this test recorded for Cc1cc(O)c(C(C)(C)C)cc1Sc1cc(C(C)(C)C)c(O)cc1C .
Solution: active

Exercise: State the result this test recorded for CC(C)Nc1nc(N)nc(Cl)n1 .
Solution: inactive

Exercise: State the result this test recorded for COc1ccc(OC)c(N=Nc2c(O)ccc3ccccc23)c1 .
Solution: inactive

Exercise: State the result this test recorded for Cc1cccc(C(=O)O)c1[N+](=O)[O-] .
Solution: inactive

Exercise: State the result this test recorded for CCCCCCCCCCCC .
Solution: inactive

Exercise: State the result this test recorded for CC(=O)O[C@@H]1C(=O)O[C@@H]2[C@H]1OC(=O)[C@@H]2OC(C)=O .
Solution: inactive

Exercise: State the result this test recorded for COc1ccccc1N1CCN(CCCCNC(=O)c2ccc(-c3ccc(C(C)=O)cc3)cc2)CC1 .
Solution: active

Exercise: State the result this test recorded for CCCC(C(=O)OCCN(CC)CC)(c1ccccc1)c1ccccc1 .
Solution: inactive

Exercise: State the result this test recorded for S=c1[nH][nH]c(=S)s1 .
Solution: inactive

Exercise: State the result this test recorded for C#CCOC(=O)[C@@H](C)Oc1ccc(Oc2ncc(Cl)cc2F)cc1 .
Solution: inactive

Exercise: State the result this test recorded for CC1=CCC(=C(C)C)CC1 .
Solution: inactive

Exercise: State the result this test recorded for CN(C)CCc1c[nH]c2ccc(CS(=O)(=O)N3CCCC3)cc12 .
Solution: inactive

Exercise: State the result this test recorded for CC(=O)Nc1ccc(N)cc1 .
Solution: inactive

Exercise: State the result this test recorded for CC(=O)N/N=C/c1ccc([N+](=O)[O-])o1 .
Solution: active

Exercise: State the result this test recorded for CSSc1ccoc1C .
Solution: inactive

Exercise: State the result this test recorded for O=C1CCCCCCCCCCC(=O)OCCO1 .
Solution: inactive

Exercise: State the result this test recorded for O=C(OC1C[C@H]2CC[C@@H](C1)[N+]21CCCC1)C(O)(c1ccccc1)c1ccccc1 (stereo not given in full) .
Solution: active

Exercise: State the result this test recorded for Cc1cc(NS(=O)(=O)c2ccc(N)cc2)nc(C)n1 .
Solution: inactive

Exercise: State the result this test recorded for Cc1cc(CCCOc2c(C)cc(-c3noc(C(F)(F)F)n3)cc2C)on1 .
Solution: inactive

Exercise: State the result this test recorded for C/C(=N\O)c1ccc(OCC(=O)N2CCCCC2)cc1 .
Solution: inactive

Exercise: State the result this test recorded for Clc1cc(Cl)cc(Cl)c1 .
Solution: inactive

Exercise: State the result this test recorded for O=C(/C=C/c1ccccc1)OC/C=C/c1ccccc1 .
Solution: inactive

Exercise: State the result this test recorded for CCN(CC)CCOc1ccccc1C(=O)CCc1ccccc1 .
Solution: active

Exercise: State the result this test recorded for COc1cc(C)ccc1O .
Solution: inactive

Exercise: State the result this test recorded for Cc1c[nH]c2ccccc12 .
Solution: inactive

Exercise: State the result this test recorded for CC/C=C\CCOC(=O)c1ccccc1O .
Solution: inactive

Exercise: State the result this test recorded for C(=C/c1ccccc1)/c1ccccc1 .
Solution: inactive
